System: ATP;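 also: ATP exposure 15 min at 22 °C before imaging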
Experiment: switch fluorescence ratio, 500 uM ATP over buffer (Cy3 cluster intensity, sum of 5 cycles each) (fold (ratio)); higher = stronger signal-on switching upon ATP binding; sequences stand for … in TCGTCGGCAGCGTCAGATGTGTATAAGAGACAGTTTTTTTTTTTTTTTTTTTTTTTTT…TC
Conditions: aptamer strand: ATP DNA aptamer (quencher-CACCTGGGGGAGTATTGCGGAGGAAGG + anchor), 100 nM annealed; ATP concentration: 500 uM
Use criterion met when the recorded switch fluorescence ratio is no lower than 1; use criterion not met when it is lower.

The following sequences have reported results that may help.
# primary_sequence, assigned_category
measured = [
    ("GTACGCGGAC", "criterion met"),
    ("TATTTGGGCG", "criterion met"),
    ("CGGAACCACG", "criterion met"),
    ("GCACGGGGGT", "criterion met"),
    ("TAAAGGGGGC", "criterion met"),
    ("GACAGTCGGC", "criterion not met"),
    ("CCTAACACGA", "criterion met"),
    ("TTCCAGCGGT", "criterion met"),
]

Now look at this one.
**Query** Evaluate TTTTGATAAC : switch fluorescence ratio at minimum 1?
**Result** criterion not met

====

Test system: ATP;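 also: ATP exposure 15 min at 22 °C before imaging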
Experiment: switch fluorescence ratio, 500 uM ATP over buffer (Cy3 cluster intensity, sum of 5 cycles each) (fold (ratio)); higher = stronger signal-on switching upon ATP binding; sequences stand for … in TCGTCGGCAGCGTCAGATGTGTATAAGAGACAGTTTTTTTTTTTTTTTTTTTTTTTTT…TC
Conditions: aptamer strand: ATP DNA aptamer (quencher-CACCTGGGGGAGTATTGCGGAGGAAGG + anchor), 100 nM annealed; ATP concentration: 500 uM
Use Met when the recorded switch fluorescence ratio is no lower than 1; use Not met when it is lower.

# primary_sequence, target_entity, assigned_category
measured = [
    ("CGGGGTCTGA", "ATP", "Not met"),
    ("GACGGGGACT", "ATP", "Met"),
]

Now look at this one.
**Query** Evaluate CCCAAAATGC : switch fluorescence ratio at minimum 1?
**Result** Met

====

Test system: ATP;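 also: ATP exposure 15 min at 22 °C before imaging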
Assay: switch fluorescence ratio, 500 uM ATP over buffer (Cy3 cluster intensity, sum of 5 cycles each) (fold (ratio)); higher = stronger signal-on switching upon ATP binding; sequences stand for … in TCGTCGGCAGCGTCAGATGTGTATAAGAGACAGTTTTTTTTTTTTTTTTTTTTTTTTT…TC
Settings: aptamer strand: ATP DNA aptamer (quencher-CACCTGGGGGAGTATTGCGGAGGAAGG + anchor), 100 nM annealed; ATP concentration: 500 uM
property_label: switch fluorescence ratio
Answer with a number only.

# primary_sequence, switch fluorescence ratio
records = [
    ("ATTTATGCAG", 0.999),
]

**Query** Any idea what switch fluorescence ratio came out for TGAAGTGAAT on ATP?
**Result** 1.01

**Query** Any idea what switch fluorescence ratio came out for CGTTTTTCGT on ATP?
**Result** 0.978

**Query** Any idea what switch fluorescence ratio came out for TGATGCAGAG on ATP?
**Result** 1.02

**Query** Any idea what switch fluorescence ratio came out for GAGGTACTAG on ATP?
**Result** 1.02

**Query** Any idea what switch fluorescence ratio came out for GAGTTATGTA on ATP?
**Result** 0.997
